ASSAY_REMARKS: Non-nucleoside inhibition of NS5B polymerase S365A mutant in HCV genotype 1a by Taqman probe based RT-PCR analysis
Under this convention, satisfied denotes EC50 strictly below 20 nM and not satisfied denotes EC50 at or above 20 nM.

SAMPLE_SMILES: CNC(=O)c1c(-c2ccc(F)cc2)oc2cc(N(C)S(C)(=O)=O)c(-c3ccc4nc(C)n([C@@H](COC)c5ccc(F)cc5)c(=O)c4c3)cc12
CLASSIFICATION: satisfied
//
SAMPLE_SMILES: CNC(=O)c1c(-c2ccc(F)cc2)oc2cc(N(C)S(C)(=O)=O)c(-c3ccc4nc(C)n(Cc5ccc(F)cc5)c(=O)c4c3)cc12
CLASSIFICATION: satisfied
//
SAMPLE_SMILES: CNC(=O)c1c(-c2ccc(F)cc2)oc2cc(N(C)S(C)(=O)=O)c(-c3ccc4nc(CNC(C)=O)n(Cc5ccc(F)cc5)c(=O)c4c3)cc12
CLASSIFICATION: satisfied
//
SAMPLE_SMILES: CNC(=O)c1c(-c2ccc(F)cc2)oc2cc(N(C)S(C)(=O)=O)c(-c3ccc4nc(C)n(Cc5ccc(F)cn5)c(=O)c4c3)cc12
CLASSIFICATION: not satisfied
//
SAMPLE_SMILES: CNC(=O)c1c(-c2ccc(F)cc2)oc2cc(N(C)S(C)(=O)=O)c(-c3ccc4ncn(Cc5ccccc5)c(=O)c4c3)cc12
CLASSIFICATION: not satisfied

// switching to the query molecule
input: Lab log: compare recorded EC50 with 20 nM; is it strictly lower for "CNC(=O)c1c(-c2ccc(F)cc2)oc2cc(N(C)S(C)(=O)=O)c(-c3ccc4c(n3)C(=O)N(c3ccc(F)cc3)CO4)cc12" ?
output: not satisfied

----------
ASSAY_REMARKS: Non-nucleoside inhibition of NS5B polymerase in HCV genotype 2a by Taqman probe based RT-PCR analysis
PARAMETER: EC50 (nM)
Numeric only. Scale: nM

Here is how some compounds turned out for EC50.
COMPOUND: CNC(=O)c1c(-c2ccc(F)cc2)oc2cc(N(C)S(C)(=O)=O)c(-c3cc(OC)c4nnn(Cc5ccc(F)cc5)c(=O)c4c3)cc12
EXPERIMENTAL_RESULT: 3.9

COMPOUND: CNC(=O)c1c(-c2ccc(F)cc2)oc2cc(N(C)S(C)(=O)=O)c(-c3ccc4c(n3)C(=O)N(c3ccc(F)cc3)CO4)cc12
EXPERIMENTAL_RESULT: 151

COMPOUND: CNC(=O)c1c(-c2ccc(F)cc2)oc2cc(N(C)S(C)(=O)=O)c(-c3ccc4nnn(C(C)c5ccc(F)cc5)c(=O)c4c3)cc12 (configuration not stated)
EXPERIMENTAL_RESULT: 9.3

input: Look up EC50 for this compound: CNC(=O)c1c(-c2ccc(F)cc2)oc2cc(N(C)S(C)(=O)=O)c(-c3ccc4nnn(C(CO)c5ccc(F)cc5)c(=O)c4c3)cc12 (configuration not stated)
output: 20

input: Look up EC50 for this compound: "CNC(=O)c1c(-c2ccc(F)cc2)oc2cc(N(C)S(C)(=O)=O)c(-c3ccc4nnn([C@H](COC)c5ccc(F)cc5)c(=O)c4c3)cc12"
output: 12

input: Look up EC50 for this compound: "CNC(=O)c1c(-c2ccc(F)cc2)oc2cc(N(C)S(C)(=O)=O)c(-c3cc4c(=O)n(Cc5ccc(F)cc5)nnc4cc3F)cc12"
output: 6.1

input: Look up EC50 for this compound: "CNC(=O)c1c(-c2ccc(F)cc2)oc2cc(N(C)S(C)(=O)=O)c(-c3ccc4nc(C)n([C@H](COC)c5ccc(F)cc5)c(=O)c4c3)cc12"
output: 19

input: Look up EC50 for this compound: "CNC(=O)c1c(-c2ccc(F)cc2)oc2cc(N(C)S(C)(=O)=O)c(-c3ccc4nnn([C@@H](COC)c5ccc(F)cc5)c(=O)c4c3)cc12"
output: 16

input: Look up EC50 for this compound: "CNC(=O)c1c(-c2ccc(F)cc2)oc2cc(N(C)S(C)(=O)=O)c(-c3ccc4nc(C)n([C@@H](COC)c5ccc(F)cc5)c(=O)c4c3)cc12"
output: 7.5

input: Look up EC50 for this compound: "CNC(=O)c1c(-c2ccc(F)cc2)oc2cc(N(C)S(C)(=O)=O)c(-c3ccc4nnn(Cc5ccc(F)cc5)c(=O)c4c3)cc12"
output: 13

input: Look up EC50 for this compound: "CNC(=O)c1c(-c2ccc(F)cc2)oc2cc(N(C)S(C)(=O)=O)c(-c3ccc4nc(C)n(Cc5ccc(F)cc5)c(=O)c4c3)cc12"
output: 4.1

input: Look up EC50 for this compound: "CNC(=O)c1c(-c2ccc(F)cc2)oc2cc(N(C)S(C)(=O)=O)c(-c3ccc4nnn(Cc5ccccc5)c(=O)c4c3)cc12"
output: 8.8
